Target: Protein cereblon/Peptidyl-prolyl cis-trans isomerase NIMA-interacting 1 (Homo sapiens, UniProt Q13526+Q96SW2)
Sequence (Q13526 whole entry): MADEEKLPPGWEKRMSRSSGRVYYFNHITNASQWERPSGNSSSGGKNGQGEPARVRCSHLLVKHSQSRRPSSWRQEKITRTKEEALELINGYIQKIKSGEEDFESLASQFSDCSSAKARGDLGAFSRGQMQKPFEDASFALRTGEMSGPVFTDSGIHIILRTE
Sequence (Q96SW2 whole entry): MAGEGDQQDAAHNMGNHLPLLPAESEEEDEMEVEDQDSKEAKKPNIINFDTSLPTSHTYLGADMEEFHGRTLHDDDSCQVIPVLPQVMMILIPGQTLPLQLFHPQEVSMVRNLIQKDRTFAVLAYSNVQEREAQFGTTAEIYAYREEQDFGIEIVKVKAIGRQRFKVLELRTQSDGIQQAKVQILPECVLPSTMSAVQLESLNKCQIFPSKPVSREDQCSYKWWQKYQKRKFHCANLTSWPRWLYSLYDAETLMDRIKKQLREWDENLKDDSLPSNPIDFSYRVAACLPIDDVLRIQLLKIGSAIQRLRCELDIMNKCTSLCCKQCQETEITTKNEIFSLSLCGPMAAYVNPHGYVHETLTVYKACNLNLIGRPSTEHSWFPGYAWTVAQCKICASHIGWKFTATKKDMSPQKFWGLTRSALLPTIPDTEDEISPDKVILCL
Experiment: PROTAC activity at CRBN/PIN1 in human MDA-MB-468 cells assessed as induction of PIN1 degradation incubated for 24 hrs by high content analysis
MEASUREMENT_LABEL: DC50 (µM)

Past entries and their recorded results:
- COMPOUND: "Cc1cccnc1C1(C(=O)NC(Cc2cn(-c3ccc(-c4ccc(C#N)cc4)cc3)nn2)C(=O)NC2CCN(CCCOc3cccc4c3C(=O)N(C3CCC(=O)NC3=O)C4=O)CC2)CC1 (centres undefined)"
  MEASUREMENT_LABEL: "DC50"
  VALUE: 0.041
- COMPOUND: "Cc1cccnc1C1(C(=O)NC(Cc2cn(-c3ccc(-c4ccc(C#N)cc4)cc3)nn2)C(=O)NCCCOc2cccc3c2C(=O)N(C2CCC(=O)NC2=O)C3=O)CC1 (centres undefined)"
  MEASUREMENT_LABEL: "DC50"
  VALUE: 0.02

(1) Cc1cccnc1C1(C(=O)NC(Cc2cn(-c3ccc(-c4ccc(C#N)cc4)cc3)nn2)C(=O)NCCCCOc2cccc3c2C(=O)N(C2CCC(=O)NC2=O)C3=O)CC1 (centres undefined)
(2) Cc1cccnc1C1(C(=O)NC(Cc2cn(-c3ccc(-c4ccc(C#N)cc4)cc3)nn2)C(=O)NC2CCN(CCCCCOc3cccc4c3C(=O)N(C3CCC(=O)NC3=O)C4=O)CC2)CC1 (centres undefined)
Which of the two items, 1 and 2 , has the greater recorded DC50? Select an item and report its label.
1
(1: 0.071 µM, 2: 0.019 µM)
